# Test system: MILI (PIWIL2) piRISC loaded with L1MC piRNA (26 nt);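 note: 1 nM active piRISC with 0.1 nM target library at 33 °C single turnover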
# ASSAY PROCEDURE: pre-steady-state target cleavage rate (min^-1); guide: L1MC piRNA 5'p-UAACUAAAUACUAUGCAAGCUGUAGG; higher = faster piRNA-guided slicing of the target
# ASSAY CONDITIONS: auxiliary factor: none (no GTSF1)
RESULT TYPE: pre-steady-state target cleavage rate
Format: numeric value only, no unit, no commentary.

sequence_input=UCCUGCUAGACCUUGCAUAGUAUUUAGUUA observed_measurement=0.00811
sequence_input=UCCUGGUACACCUUGCAAAGUAUUUAGUUA observed_measurement=0.0081

Bench note: what pre-steady-state target cleavage rate did `UCCUGGAUCUGCUUGCAUUGUAUUUAGUUA` show? 0.00477

----------
# Test system: MILI (PIWIL2) piRISC loaded with piRNA #1 (26 nt);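 note: 1 nM active piRISC with 0.1 nM target library at 33 °C single turnover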
# ASSAY PROCEDURE: pre-steady-state target cleavage rate (min^-1); guide: piRNA #1 5'p-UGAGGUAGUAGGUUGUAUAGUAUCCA; MIWI and MILI are mouse PIWI proteins and EfPiwi is from a freshwater sponge; tags in brackets are library labels; higher = faster piRNA-guided slicing of the target
# ASSAY CONDITIONS: auxiliary factor: 500 nM mouse GTSF1
Label rule, in plain words: pre-steady-state target cleavage rate of 0.03 and up is criterion met, under 0.03 is criterion not met.

sequence_input=GGAGACGAUACUAUUGAACCUACUACCUCA assigned_class="criterion met"
sequence_input=GGAGACCUAUGAUUACAACCUACUACCACA assigned_class="criterion not met"

Answer whether pre-steady-state target cleavage rate of `GGAGUGGAUACUUUACUACCUACUACCUCA` is greater than or equal to 0.03. criterion met

Answer whether pre-steady-state target cleavage rate of `GGAGACCUUACUUUACAAGCUACUACCUCA` is greater than or equal to 0.03. criterion met

Answer whether pre-steady-state target cleavage rate of `GGAGACCUUACUAUACAACCUACUACCCUCA` is greater than or equal to 0.03. criterion met

Answer whether pre-steady-state target cleavage rate of `GGAGUGGUUACUAUACAACCUACUACCUCA` is greater than or equal to 0.03. criterion met

Answer whether pre-steady-state target cleavage rate of `GGAGACCUUACUAUACAACCUACUCCUCA` is greater than or equal to 0.03. criterion not met

Answer whether pre-steady-state target cleavage rate of `GGAGACCUAUGAAUACAACCUACUAACCUCA` is greater than or equal to 0.03. criterion not met

Answer whether pre-steady-state target cleavage rate of `GGAGACGUUACUAUACUACCUACUACCUCA` is greater than or equal to 0.03. criterion met

Answer whether pre-steady-state target cleavage rate of GGAGACCAUACUAUACAACGAUGAUGGAGA [g12:g23:cont:t1A] is greater than or equal to 0.03. criterion not met

Answer whether pre-steady-state target cleavage rate of `GGAGACCUAACUAUACAACCUACUAGCACA` is greater than or equal to 0.03. criterion not met

Answer whether pre-steady-state target cleavage rate of `GGAGACCUAUGUAUACAAGCUACUACCUCA` is greater than or equal to 0.03. criterion met

Answer whether pre-steady-state target cleavage rate of `GGAGUGGUUACUAUACAACCUACUAGCUCA` is greater than or equal to 0.03. criterion not met

Answer whether pre-steady-state target cleavage rate of `GGAGUGGAUACUAUACUACCUACUACCUCA` is greater than or equal to 0.03. criterion met
